ASSAYED_SYSTEM: PHD1 (EGLN2) (Homo sapiens (Human), UniProt Q96KS0)
Sequence (Q96KS0 whole entry): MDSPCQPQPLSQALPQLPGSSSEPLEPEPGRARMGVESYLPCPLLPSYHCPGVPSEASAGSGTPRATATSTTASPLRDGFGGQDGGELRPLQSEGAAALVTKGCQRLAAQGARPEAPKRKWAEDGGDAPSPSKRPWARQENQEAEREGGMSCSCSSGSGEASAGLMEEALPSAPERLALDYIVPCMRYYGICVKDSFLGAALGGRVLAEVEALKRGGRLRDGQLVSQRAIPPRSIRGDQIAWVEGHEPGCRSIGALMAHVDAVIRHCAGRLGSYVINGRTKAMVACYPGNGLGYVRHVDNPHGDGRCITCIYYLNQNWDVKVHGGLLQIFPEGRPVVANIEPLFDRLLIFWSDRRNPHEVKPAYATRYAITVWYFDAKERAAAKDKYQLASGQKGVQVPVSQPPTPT
EXPERIMENT_DESCRIPTION: HIF-PH assay (14CO2 capture), PHD1 enzyme inhibition
Type: biochemical
MEASUREMENT_CONTEXT: read-out: IC50 (μM) PHD1
Description: Ketoglutaric acid α-[1-^14C]-sodium salt, alpha-ketoglutaric acid sodium salt, and HPLC purified peptide may be obtained from commercial sources, e.g., Perkin-Elmer (Wellesley Mass.), Sigma-Aldrich, and SynPep Corp. (Dublin Calif.), respectively. […] Enzyme activity is determined by capturing ^14CO2 using an assay described by Kivirikko and Myllyla (1982, Methods Enzymol. 82:245-304). […]
PROPERTY_NAME: IC50 (µM)
Answers are plain numbers, in µM.

Value of measured IC50 for the entry CC(C)C(CC(=O)O)NC(=O)c1nc(C#N)c2cc(Oc3ccccc3)ccc2c1O (stereo not shown) : 33.3
